Items are presented alongside their recorded z-score.
experiment: splicing luciferase reporter signal modulators, primary screen, spliceosome inhibition project, cell-based, HEK293, splice +/- reporter (AID 1101); conditions: luminescence, 24 h, higher = more signal, called active from +8 up or from −8 down;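 further: HEK293 cells carrying a splicing-competent luciferase reporter gene; test concentration not given here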

{"smiles": "Cc1ccc(S[C@]2(C(=O)NC(C)C)CC(=O)N(C3Cc4ccccc4C3)[C@@H]2c2ccc(CO)cc2I)cc1", "z-score": -1.44}
{"smiles": "CCOC(=O)C1=CC[C@@H](c2cc(Cl)ccc2Cl)N(S(=O)(=O)c2ccc(C)cc2)[C@H]1c1ccc(OC)cc1", "z-score": -0.381}
{"smiles": "Cc1ccc(S[C@]2(C(=O)NCCN3CCOCC3)CC(=O)N(Cc3ccccc3C(F)(F)F)[C@@H]2c2ccc(CO)cc2I)cc1", "z-score": -1.55}
{"smiles": "COc1cc2c(cc1OC)CN(C(=O)[C@@H]1[C@H]3C(=O)O[C@H](c4ccccc4)[C@H](c4ccccc4)N3[C@H](c3ccccc3OCCO)[C@@]13C(=O)Nc1ccc(C#CC4(O)CCCCCC4)cc13)CC2", "z-score": 0.582}

* * *

target: E3 ubiquitin-protein ligase XIAP (Homo sapiens); assay: XIAP binders, primary screen, biophysical, small-molecule microarray, fluorescence 635 nm (AID 1181); details: small-molecule microarray binding, higher = more signal;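 further: score merges 667 nm emission and signal to noise over triplicate slides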
Items are presented alongside their recorded composite z-score.
valueKind: composite z-score

{"compound": "O=C1O[C@@H](c2ccccc2)[C@@H](c2ccccc2)N2[C@@H](c3ccc(O)cc3)[C@]3(C(=O)Nc4ccc(C#CCCO)cc43)[C@@H](C(=O)Nc3nc4ccccc4s3)[C@H]12", "systemTested": "E3 ubiquitin-protein ligase XIAP (Homo sapiens)", "testValue": -0.0918}
{"compound": "C=CCNC(=O)[C@H]1[C@@H]2C(=O)O[C@@H](c3ccccc3)[C@@H](c3ccccc3)N2[C@@H](c2ccccc2OCCO)[C@]12C(=O)N(C(=O)OCCOC)c1ccc(C#CC3=CCCCC3)cc12", "systemTested": "E3 ubiquitin-protein ligase XIAP (Homo sapiens)", "testValue": 0.106}
{"compound": "C=CCNC(=O)[C@@H]1[C@H]2C(=O)O[C@H](c3ccccc3)[C@H](c3ccccc3)N2[C@H](c2ccc(OCCO)cc2)[C@@]12C(=O)N(C(=O)OCCOC)c1ccc(C#CC3=CCCCC3)cc12", "systemTested": "E3 ubiquitin-protein ligase XIAP (Homo sapiens)", "testValue": -0.426}
{"compound": "COc1ccc(C(O)C2C=CC3C(=O)N(c4ccccc4)C(=O)C3N2Nc2ccc(C#N)cc2)c2ccccc12 (configuration not stated)", "systemTested": "E3 ubiquitin-protein ligase XIAP (Homo sapiens)", "testValue": 0.39}
{"compound": "CC(=O)NCCCC[C@@H]1NC(=O)[C@@H]2C[C@H](C(=O)O)[C@H](c3ccc(O)cc3)N2C1=O", "systemTested": "E3 ubiquitin-protein ligase XIAP (Homo sapiens)", "testValue": -0.0796}
{"compound": "COC1(C)CN(Cc2ccccc2Br)[C@H](/C=C/c2ccccc2)[C@H](Cc2ccccc2)O1 (some centres not stated)", "systemTested": "E3 ubiquitin-protein ligase XIAP (Homo sapiens)", "testValue": -0.102}
{"compound": "C=C(/C(=C/C[C@@H](OC(=O)c1ccncc1)c1ccccc1OCCO)c1cc(C(=O)OC)ccc1OC)C(C)C", "systemTested": "E3 ubiquitin-protein ligase XIAP (Homo sapiens)", "testValue": 0.153}
{"compound": "COc1cc(CO)cc(I)c1O[C@H]1C=C(C(=O)NCCO)C[C@@H](N(CC2CCCCC2)C(=O)c2ccc(C(F)(F)F)cc2)[C@@H]1O", "systemTested": "E3 ubiquitin-protein ligase XIAP (Homo sapiens)", "testValue": 0.0859}
{"compound": "Cc1ccc(S[C@]2(C(=O)NC3CC3)CC(=O)N(Cc3ccccc3Cl)[C@@H]2c2ccc(CO)cc2I)cc1", "systemTested": "E3 ubiquitin-protein ligase XIAP (Homo sapiens)", "testValue": -0.0118}
{"compound": "CC(C)C[C@@H]1NC(=O)[C@H]2C[C@@H](C(=O)NCCCCCC[N+](C)(C)C)[C@@H](c3cccc(OCCO)c3)N2C1=O", "systemTested": "E3 ubiquitin-protein ligase XIAP (Homo sapiens)", "testValue": -0.188}
{"compound": "CC(=O)N1Cc2ccccc2C[C@]2(N=C(c3ccc(OCCCO)cc3)O[C@@H]2c2ccccc2)C1=O", "systemTested": "E3 ubiquitin-protein ligase XIAP (Homo sapiens)", "testValue": 0.247}
{"compound": "O=C1O[C@@H](c2ccccc2)[C@@H](c2ccccc2)N2[C@@H](c3ccccc3OCCO)[C@]3(C(=O)Nc4ccc(C#CC5=CCCCC5)cc43)[C@@H](C(=O)NC[C@H](O)c3ccccc3)[C@H]12", "systemTested": "E3 ubiquitin-protein ligase XIAP (Homo sapiens)", "testValue": -0.16}
{"compound": "O=C(O)[C@H](Cc1ccccc1)n1cc(-c2ccccn2)nn1", "systemTested": "E3 ubiquitin-protein ligase XIAP (Homo sapiens)", "testValue": 0.122}
{"compound": "C=CCOC(=O)[C@@H]1[C@H]2C(=O)O[C@H](c3ccccc3)[C@H](c3ccccc3)N2[C@H](c2ccc(OCCOC(=O)[C@H]3C[C@H]4C(=O)N[C@@H](CCCCN(C)C)C(=O)N4[C@H]3c3cccc(OCCO)c3)cc2)[C@@]12C(=O)Nc1ccc(I)cc12", "systemTested": "E3 ubiquitin-protein ligase XIAP (Homo sapiens)", "testValue": -0.202}
{"compound": "CC(C)CCC[C@@H](C)[C@H]1CC[C@@]2(C)C3=C(CC[C@]12C)[C@@]1(C)CC[C@H](OC(=O)c2ccc(Br)cc2)C(C)(C)C1CC3 (some centres not stated)", "systemTested": "E3 ubiquitin-protein ligase XIAP (Homo sapiens)", "testValue": 0.0223}
{"compound": "COCCCNC(=O)[C@]1(Cc2ccccc2CN=[N+]=[N-])N=C(c2ccc(OCCCO)cc2)O[C@@H]1c1ccccc1", "systemTested": "E3 ubiquitin-protein ligase XIAP (Homo sapiens)", "testValue": 0.216}
{"compound": "Cc1ccc(F)cc1S(=O)(=O)N[C@@H]1CCN(Cc2ccc(Oc3ccccc3)cc2)C1", "systemTested": "E3 ubiquitin-protein ligase XIAP (Homo sapiens)", "testValue": -0.13}
{"compound": "C=C(CCCC)/C(=C/C[C@@H](OC(C)=O)c1ccc(CO)o1)c1cc(C(=O)OC)ccc1OC", "systemTested": "E3 ubiquitin-protein ligase XIAP (Homo sapiens)", "testValue": -0.0367}
{"compound": "O=C(NC1CC1)[C@@H]1c2ccccc2C(=O)N(Cc2ccccc2)[C@H]1c1ccc(CO)cc1", "systemTested": "E3 ubiquitin-protein ligase XIAP (Homo sapiens)", "testValue": 0.159}
{"compound": "COCCOC(=O)N1C(=O)[C@@]2(c3cc(C#CC4(O)CCCCCC4)ccc31)[C@H](C(N)=O)[C@H]1C(=O)O[C@H](c3ccccc3)[C@H](c3ccccc3)N1[C@@H]2c1ccccc1OCCO", "systemTested": "E3 ubiquitin-protein ligase XIAP (Homo sapiens)", "testValue": -0.229}
{"compound": "[N-]=[N+]=NCc1ccccc1[C@H]1OC(c2ccc(OCCCO)cc2)=N[C@@]1(CCS(=O)(=O)c1ccccc1)C(N)=O", "systemTested": "E3 ubiquitin-protein ligase XIAP (Homo sapiens)", "testValue": 0.182}
{"compound": "COc1cc2c(cc1OC)CN(C(=O)[C@H]1[C@@H]3C(=O)O[C@@H](c4ccccc4)[C@@H](c4ccccc4)N3[C@@H](c3ccc(OCCO)cc3)[C@]13C(=O)Nc1ccc(C#CCCO)cc13)CC2", "systemTested": "E3 ubiquitin-protein ligase XIAP (Homo sapiens)", "testValue": -0.351}
{"compound": "CN(C)CCCN1C(=O)[C@@]2(c3ccc([N+](=O)[O-])cc3)CC(=O)N(CC34CC5CC(CC(C5)C3)C4)[C@@H]2c2ccc(CO)cc21", "systemTested": "E3 ubiquitin-protein ligase XIAP (Homo sapiens)", "testValue": -0.02}
{"compound": "CCCN1C(=O)[C@]2(Cc3ccccc3)N=C(c3ccc(OCCCO)cc3)O[C@@H]2c2ccccc21", "systemTested": "E3 ubiquitin-protein ligase XIAP (Homo sapiens)", "testValue": 0.108}
{"compound": "COC(=O)C1(Cc2ccccc2)C=C2C(=C(c3ccccc3)C(=O)C2C)CN1 (configuration not stated)", "systemTested": "E3 ubiquitin-protein ligase XIAP (Homo sapiens)", "testValue": -0.217}
{"compound": "COc1ccc(NN2C(C(O)c3ccco3)C=CC3C(=O)N(C4CCCCC4)C(=O)C32)cc1 (configuration not stated)", "systemTested": "E3 ubiquitin-protein ligase XIAP (Homo sapiens)", "testValue": 0.065}
{"compound": "CCOC(=O)C[C@H]1[C@H](OC(=O)c2ccc(-c3ccccc3)cc2)[C@@H](NC(=O)c2ccc3ccccc3c2)c2cc(OCCCO)ccc2N1C(=O)c1ccc2ccccc2n1", "systemTested": "E3 ubiquitin-protein ligase XIAP (Homo sapiens)", "testValue": -0.394}
